biological target: Voltage-gated potassium channel subunit beta-2 (Rattus norvegicus) (UniProt P62483); assay: KvBeta enzyme negative modulators, primary screen, biochemical, NADPH fluorescence (AID 622); details: recombinant KvBeta, 4-cyanobenzaldehyde reduction, at 10 µM, stronger effect = higher value;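 also: slope of raw intensity against log time taken from 70 to 1610 s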
Sequence (P62483 whole entry, looked up): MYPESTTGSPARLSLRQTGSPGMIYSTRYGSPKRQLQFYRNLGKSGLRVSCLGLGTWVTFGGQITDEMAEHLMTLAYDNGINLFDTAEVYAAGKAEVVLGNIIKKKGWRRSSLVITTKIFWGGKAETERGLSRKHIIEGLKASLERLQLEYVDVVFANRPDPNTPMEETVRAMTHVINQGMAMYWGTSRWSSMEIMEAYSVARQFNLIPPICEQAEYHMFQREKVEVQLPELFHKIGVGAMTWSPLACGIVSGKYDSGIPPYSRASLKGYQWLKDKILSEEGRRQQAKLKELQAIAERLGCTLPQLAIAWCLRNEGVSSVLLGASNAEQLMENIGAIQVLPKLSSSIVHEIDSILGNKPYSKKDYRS
If the reported fluorescence slope equals or exceeds -0.4, assign Fulfilled. If not, assign Not fulfilled.

compound: CCN1C(=O)c2ccccc2S(=O)(=O)c2ccc(C(=O)NCc3cccnc3)cc21
qualitative label: Not fulfilled

compound: COc1cc(NC(=O)CN(c2cc(C)cc(C)c2)S(=O)(=O)c2c(C)noc2C)cc(OC)c1
qualitative label: Not fulfilled

compound: CCCCSc1nc(O)c(C2OC(=O)c3c2ccc(OC)c3OC)c(=O)n1C (stereo not given)
qualitative label: Fulfilled

compound: Cc1cccc(CCNC(=O)CCc2nc(-c3ccccc3F)no2)c1
qualitative label: Not fulfilled

###

target: Voltage-gated potassium channel subunit beta-2 (Rattus norvegicus) (UniProt P62483); test: KvBeta enzyme negative modulators, primary screen, biochemical, NADPH fluorescence (AID 622); settings: recombinant KvBeta, 4-cyanobenzaldehyde reduction, at 10 µM, stronger effect = higher value;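 also: slope of raw intensity against log time taken from 70 to 1610 s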
measured attribute: fluorescence slope

compound: O=C(CCCc1cccs1)Nc1nc2c(s1)CCCC2
measured attribute: fluorescence slope
reported value: -0.461
//
compound: c1ccc(-c2nnc(-c3ccco3)n2-c2ccccc2)cc1
measured attribute: fluorescence slope
reported value: -0.47
//
compound: CN(C)S(=O)(=O)c1ccc(/C(O)=C2/C(=O)C(=O)N(CCN3CCCCC3)C2c2cccnc2)cc1 (stereo not given)
measured attribute: fluorescence slope
reported value: -0.396
//
compound: CC(=O)OCCNc1cc(N2CCN(C)CC2)c2noc3c2c1C(=O)c1ccccc1-3
measured attribute: fluorescence slope
reported value: -0.58
//
compound: O=C(OCCN1CCOCC1)c1ccc2c(c1)OCCO2
measured attribute: fluorescence slope
reported value: -0.473
//
compound: O=C(CN1C2=NCCN2c2ccccc21)N1CCOCC1
measured attribute: fluorescence slope
reported value: -0.447
//
compound: CCOC(=O)c1nnc(-c2ccccc2)o1
measured attribute: fluorescence slope
reported value: -0.592
//
compound: Cn1c(=O)c2c(nc(CN3CCN(Cc4ccccc4)CC3)n2Cc2cccc(Cl)c2)n(C)c1=O
measured attribute: fluorescence slope
reported value: -0.562
//
compound: Cc1cc(C)n2nc(SCc3cc(=O)n4ccccc4n3)nc2n1
measured attribute: fluorescence slope
reported value: -0.29
//
compound: CCOc1ccc(NC(=O)C2CC(=O)N(CC)C(=Nc3ccc4c(c3)OCO4)S2)cc1 (stereo not given)
measured attribute: fluorescence slope
reported value: -0.358
//
compound: CCc1c(C)c2cc(Cl)c(O)c(CN3CCCCC3)c2oc1=O
measured attribute: fluorescence slope
reported value: -0.0112
//
compound: CCC(C)NC(=O)C1(C)CCC(=O)N1CCc1ccc(OC)c(OC)c1 (stereo not given)
measured attribute: fluorescence slope
reported value: -0.606
//
compound: CCC(C)Nc1nc2c(c(=O)n(C)c(=O)n2C)n1Cc1ccc(F)cc1 (stereo not given)
measured attribute: fluorescence slope
reported value: -0.617
//
compound: COC(=O)CSc1nc(-c2cccs2)ccc1C#N
measured attribute: fluorescence slope
reported value: -0.456
//
compound: COc1ccc(C2C(C(=O)Nc3cccnc3)=C(C)Nc3nc(-c4cccs4)nn32)cc1OC (stereo not given)
measured attribute: fluorescence slope
reported value: -0.593
//
compound: COC(=O)CCn1nnc(-c2cccs2)n1
measured attribute: fluorescence slope
reported value: -0.598
//
compound: CC1(C)OC(=O)C(=CNC(CCC(N)=O)C(=O)O)C(=O)O1 (stereo not given)
measured attribute: fluorescence slope
reported value: -0.611
//
compound: CCn1c(CSc2nc(C)cc(C)n2)nnc1SCC(=O)Nc1ccccc1
measured attribute: fluorescence slope
reported value: -0.436
//
compound: CCOC(=O)Cc1csc(NC(=O)CSc2nnc(C)n2C)n1
measured attribute: fluorescence slope
reported value: -0.448
//
compound: CC(O)c1cc2c(cc1NC(=O)c1cnn3c1NC(c1ccco1)CC3C(F)(F)F)OCO2 (stereo not given)
measured attribute: fluorescence slope
reported value: -0.583
//
compound: CCN(CCCNC(=O)CC1Oc2ccc(C)cc2NC1=O)Cc1ccccc1 (stereo not given)
measured attribute: fluorescence slope
reported value: -0.495
//
compound: CCOC(=O)CNC(=O)CSc1nc(N(C)C)nc(N2CCOCC2)n1
measured attribute: fluorescence slope
reported value: -0.517
//
compound: COc1ccc(/C(O)=C2/C(=O)C(=O)N(Cc3ccco3)C2c2cccs2)cc1 (stereo not given)
measured attribute: fluorescence slope
reported value: -0.435
//
compound: COc1ccc(OC)c(-c2cc(C(=O)NCc3cccs3)no2)c1
measured attribute: fluorescence slope
reported value: -0.487
//
compound: CCN(CC)C(=O)CSc1nnc(-c2cc(OC)cc(OC)c2)o1
measured attribute: fluorescence slope
reported value: -0.413
//
compound: CNC(=O)CSc1nnc(-c2ccc(S(=O)(=O)N3CCCC3)cc2)n1-c1cccc(C)c1C
measured attribute: fluorescence slope
reported value: -0.458
//
compound: COc1cccc(NC(=O)N(Cc2ccco2)C(C)c2cccs2)c1 (stereo not given)
measured attribute: fluorescence slope
reported value: -0.469
//
compound: Cc1nnc(SCC(=O)Nc2cc(C(F)(F)F)ccc2N2CCOCC2)o1
measured attribute: fluorescence slope
reported value: -0.379
//
compound: Cc1cc(CN2CCN(CCC#N)CC2)c(O)c(C2(C)CCCCC2)c1
measured attribute: fluorescence slope
reported value: -0.541
//
compound: Cc1ccc(CCNC(=O)C2CCCN2S(=O)(=O)c2ccc3c(c2)CCC(=O)N3)cc1 (stereo not given)
measured attribute: fluorescence slope
reported value: -0.547
//
compound: CCOC(=O)C1C2C=CC3(CN(Cc4ccco4)C(=O)C13)O2 (stereo not given)
measured attribute: fluorescence slope
reported value: -0.469
//
compound: N#Cc1nc(COc2ccccc2)oc1N1CCCC1
measured attribute: fluorescence slope
reported value: -0.42
//
compound: COc1ccc(OCC(=O)N2CCN(C(=O)COc3ccc(Br)cc3)CC2)cc1
measured attribute: fluorescence slope
reported value: -0.486
//
compound: CC(C)(C)C(=O)Cn1c[n+](N)cn1
measured attribute: fluorescence slope
reported value: -0.62
//
compound: COc1ccc(S(=O)(=O)N2CCC(C(=O)c3ccc4c(c3)OCCO4)CC2)cc1
measured attribute: fluorescence slope
reported value: -0.461
//
compound: CC(=O)/C(C#N)=C1\NC(=O)C(Cc2ccccc2)S1 (stereo not given)
measured attribute: fluorescence slope
reported value: -0.425
//
compound: CCOC(=O)c1ccc(Oc2nc(SC)nc(N(C)C)n2)cc1
measured attribute: fluorescence slope
reported value: -0.34
//
compound: Cc1cc2ccccn2c1C(=O)c1ccncc1
measured attribute: fluorescence slope
reported value: -0.62
//
compound: COc1cc(C2Nc3cccc4cccc(c34)N2)cc(OC)c1OC(C)=O
measured attribute: fluorescence slope
reported value: -0.474
//
compound: O=C(Cc1ccccc1)Nc1cccc(-c2nnc(-c3ccco3)o2)c1
measured attribute: fluorescence slope
reported value: -0.485
//
compound: CCn1c(C(=O)N2CCCC(C(=O)NCCCc3ccccc3)C2)cc2sccc21 (stereo not given)
measured attribute: fluorescence slope
reported value: -0.583
//
compound: CCOC(=O)CNC(=O)CNC(=O)c1ccc(OC)cc1
measured attribute: fluorescence slope
reported value: -0.447
//
compound: COc1ccc(NC(=O)C(C)NS(=O)(=O)c2ccccc2)cc1Cl (stereo not given)
measured attribute: fluorescence slope
reported value: -0.369
//
compound: CCc1nc2n[nH]c(N)c2c2c1CSC(C)(C)C2
measured attribute: fluorescence slope
reported value: -0.458
//
compound: Cc1cccc2cc(CN(CCN3CCCC3)C(=O)NC3CCCCC3)c(=O)[nH]c12
measured attribute: fluorescence slope
reported value: -0.428

###

assay: inhibitors of mutant huntingtin aggregation, primary screen, imaging, exon1htt(103Q)mCFP cells, high-content imaging (AID 483); settings: exon1htt(103Q)mCFP cell line, aggregate imaging, at 2 µM; stronger effect = higher value;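 also: compound exposure lasted 3 days before fixation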
If the reported inhibition of aggregation equals or exceeds -10%, assign true (1). If not, assign false (0).

compound: CC(C)(C)NC(=O)CSc1nnc(-c2ccccn2)n1-c1ccccc1
qualitative label: false (0)

compound: COc1ccc(-n2c(SCc3ccc(C#N)cc3)nnc2-c2ccccn2)cc1
qualitative label: true (1)

compound: Cc1nnc(SCc2nc3ccccc3s2)n1-c1ccccc1
qualitative label: false (0)

compound: N#C/C(=C(/O)CN1CCOCC1)c1nc2ccccc2s1
qualitative label: true (1)

compound: COc1ccc(C2N(C(=O)c3ccccc3)CCN2C(=O)c2ccccc2)cc1
qualitative label: true (1)

compound: CCOc1cccc(C(=O)N(Cc2ccc(F)cc2)C2CCS(=O)(=O)C2)c1 (stereo unspecified)
qualitative label: false (0)

compound: CC(C)OC(=O)CSc1nc2cccnc2n1C1CCCCC1
qualitative label: false (0)

compound: Cc1ccc(C2=N/C(=C/N3CCOCC3)C(=O)O2)cc1
qualitative label: true (1)

compound: O=C(CN1C(=O)c2ccccc2S1(=O)=O)NCc1ccccc1Cl
qualitative label: true (1)

compound: O=C(/C=C1\NC2(CCCC2)Cc2ccccc21)N1CCOCC1
qualitative label: false (0)

compound: CCOC(=O)C1CCN(c2c(NC3CCCc4ccccc43)c(=O)c2=O)CC1 (stereo unspecified)
qualitative label: true (1)

compound: CCN1C(=O)c2ccccc2S(=O)(=O)c2ccc(C(=O)NCc3cccnc3)cc21
qualitative label: false (0)

compound: Cc1ccc(CSC2=NCCN2C(=O)c2ccco2)cc1
qualitative label: false (0)

compound: CC(=O)c1cc(F)c(N2CCN(C(=O)Cc3ccccc3)CC2)cc1C
qualitative label: false (0)

compound: CCc1[nH]nc2c1C1(CCN(C(=O)OCc3ccccc3)CC1)C(C#N)=C(N)O2
qualitative label: true (1)

compound: CCOC(=O)C1CCN(Cc2ccc(F)c(Br)c2)CC1
qualitative label: false (0)

compound: CCN(C(=O)c1cn(C)c(=O)c2cc(OC)c(OC)cc12)c1ccccc1C
qualitative label: true (1)

compound: COc1cccc(NC(=O)C2C3C=CC4(O3)C2C(=O)N(C(C)C)C4C(=O)NC2CCCCC2C)c1 (stereo unspecified)
qualitative label: true (1)

compound: Cc1ccsc1C(C(=O)NC1CCCCC1)N(C(=O)Cc1cccs1)C1CC1 (stereo unspecified)
qualitative label: true (1)

compound: CCCOc1ccc2ccccc2c1/C=N/n1cnnc1
qualitative label: true (1)

compound: Cn1c(=O)cc(OCCCC(=O)Nc2ccc3c(c2)OCCO3)c2ccccc21
qualitative label: true (1)

compound: COCCCNC(=O)c1c(N)n(-c2cccc(S(N)(=O)=O)c2)c2nc3ccccc3nc12
qualitative label: false (0)

compound: COC(=O)c1ccc(CNC(=O)CSc2nc3sc(C)c(C)c3c(=O)n2C)o1
qualitative label: true (1)

compound: COC(=O)c1ccc(-n2nnnc2SCc2nn[nH]n2)cc1
qualitative label: false (0)

compound: CN1CCc2c(sc3c2c(=O)n(-c2cccc(Cl)c2)c2nncn32)C1
qualitative label: true (1)

compound: c1ccc(-n2ncc3c(NCc4cccs4)ncnc32)cc1
qualitative label: true (1)

compound: COC(=O)c1ccccc1NC(=O)CC(NCc1ccccc1)C(=O)O (stereo unspecified)
qualitative label: false (0)

compound: COc1cccc(C2CC(=O)Nc3c2c(=O)n(C)c(=O)n3C)c1OC (stereo unspecified)
qualitative label: false (0)

compound: FC(F)(F)c1cccc(N2CCN(Cc3cccnc3)CC2)c1
qualitative label: false (0)

compound: O=S1(=O)C=C(Oc2ccc(F)cc2)c2ccccc21
qualitative label: true (1)

compound: COc1ccc(Nc2ncc3c(n2)CC(c2ccc(OC)cc2)CC3=O)cc1 (stereo unspecified)
qualitative label: true (1)

compound: CCOC(=O)CSc1nc2sc(C)c(C)c2c(=O)n1C
qualitative label: true (1)

compound: CCOC(=O)c1sc(=NC(=O)c2ccc(OC)c(OC)c2)n(C)c1C
qualitative label: true (1)

compound: Cc1cccc(OCCNC(=O)c2ncn[nH]2)c1
qualitative label: true (1)

compound: O=C(NC1CC1)C1CCC(=O)N1C1CCCC1 (stereo unspecified)
qualitative label: false (0)

compound: CCCCNC(=O)c1nnn(-c2ccccc2)c1N
qualitative label: true (1)

compound: CCOC(=O)c1ccccc1NC(=O)CSc1nccn1C
qualitative label: false (0)

compound: CCOc1ccccc1-n1c(SCC(=O)NC(C)CC)nnc1-c1ccoc1C (stereo unspecified)
qualitative label: true (1)

compound: CCOC(=O)Cn1c(CN(C)Cc2ccccc2)nc2c1c(=O)n(C)c(=O)n2C
qualitative label: true (1)

compound: COc1ccc(Cn2nnnc2C(c2cccnc2)N2CCN(c3ccc(O)cc3)CC2)cc1 (stereo unspecified)
qualitative label: true (1)

compound: CC(C)=CCCC(C)CN(C)CCc1ccccn1 (stereo unspecified)
qualitative label: true (1)

compound: COc1ccc(N(CC(=O)Nc2cc(C)ccc2C)S(=O)(=O)c2c(C)nn(C)c2C)cc1
qualitative label: true (1)

compound: COC(=O)Nc1sc2c(c1C(=O)N1CCOCC1)CCC(C)C2 (stereo unspecified)
qualitative label: false (0)

compound: COc1ccc2[nH]c(=O)c(CN(C(=O)c3ccncc3)C(C)C)cc2c1
qualitative label: true (1)

compound: Cn1c(SCC(=O)Nc2ccc3c(c2)OCO3)nnc1-c1cnccn1
qualitative label: true (1)
